Ref: patent US20190248900A1

target: T1, M8; assay: scFv-phage ELISA
T1 construct: also called PD1 mutant M8
Recorded OD490 for the following binders

>>> experimentalresult("PD1-45F4 (antibody, V domains shown, scFv-phage in the screening ELISA; later whole IgG) VH: QMQLVESGGGLVQPGRSLRLSCAASGFTFDDYAMHWVRQAPGQGLEWVSGISWNSNNIKYADSVKGRFTISRDNSKNSLYLQMNSLRAEDTAVYYCARGALTPLDVWGQGTPVTVSS VL: SYELTQAPSLSVSPGQTANIICSGDNLRTKYVSWYQQKPGQSPLLVIYQDTRRPSGIPARFSGSNSGNTATLTISGTQTRDESTYYCMTWDVDTTSMIFGGGTKLTVL")
3.6
>>> experimentalresult("PD1-32A6 (antibody, V domains shown, scFv-phage in the screening ELISA; later whole IgG) VH: QVQLVQSGAEVKKPGSSVKVSCKASGDTFTRNAVSWVRQAPGEGLEWMADIIPIFGSANYAQKFQGRLTLTADVSTSTAYMELSSLRSEDTAVYYCARTIEGAFDIWGQGTMVTVSS VL: DIQMTQSPSSVSASVGDRVTITCRASQGIVSWLAWYQQKPGKAPRLLIYRASDLETGVPSRFSGSGSGTDFTLTISSLQPEDVATYYCQQADSFPLTFGGGTKVEIK")
3.1
>>> experimentalresult("PD1-49B9 (antibody, V domains shown, scFv-phage in the screening ELISA; later whole IgG) VH: QMQLVESGGGLVQPGRSLRLSCAASGFTFEDYAMHWVRQPPGKGLEWVSSISWNSHNIAYADSVKGRFTISRDNSKNSLYLQMNSLRAEDTAVYYCSTSGLGVHAWGQGTMVTVSS VL: QSALTQPPSASGSPGQSVTISCTGTSSDVGGYNYVSWYQQHPGKAPKLMIYEVSKRPSGVPDRFSGSKSGNTASLTVSGLQPEDEADYYCSSFARNSNYVFGTGTKVTVL")
4
>>> experimentalresult("PD1-42G4 (antibody, V domains shown, scFv-phage in the screening ELISA; later whole IgG) VH: QVQLVESGGGLVKPGGSLRLSCAASGFTFSDYYMSWIRQAPGKGLEWVSDISASGNSIYYADSVKRRFTISRDNSKNSLYLQMNSLRAEDTAVYYCVTSGPFGEFRNWGLGTLVTVSS VL: DIQMTQSPSSLSASVGDRVTTTCRASQGISSYLAWYQQKPGKAPKLLIYAASTLQSGVPSRFSGSGSGTDFTLTISSLQPEDFATYFCQQSYTSPRTFGQGTKLDIK")
2.1
>>> experimentalresult("PD1-29H3 (antibody, V domains shown, scFv-phage in the screening ELISA; later whole IgG) VH: QMQLVESGGNLVQPGRSLRLSCAASGFTFDDYGMHWVRQAPGKGLEWVSSISWNSGTIGYADSVKGRFTISRDNAKNSLYLQMNSLRSEDTAVYYCARLLHQMNEHEFMDVWGQGTTVTVSS VL: QLVLTQPSSMSEAPGQRVTISCSGGTSNIGTNAVNWYQQPPGKAPTLLIYYDDRLTSGVSDRFSGSKSGTSASLAISRLQSEDEADYYCAAWDDSLNGWVFGGGTKLTVL")
2.2
>>> experimentalresult("PD1-51D9 (antibody, V domains shown, scFv-phage in the screening ELISA; whole IgG in the other assays) VH: QVQLVESGAEVKKPGASVKLSCKASGYTFSSYWMHWVRQAPGQRLEWMGEINPGNGHTNYNEKFKSRVTITVDKSASTAYMELSSLRSEDTAVYYCAREGDGSYWGYFDSWGQGTPITVSS VL: DIVMTQTPLSLPVTPGEPASISCRSSQSLLHSNGNNYLDWYLQKPGQSPQLLIYLGSYRASGVPDRFSGSGSGTDFTLKISRVEAEDVGLYYCMQGLQIPSTFGPGTKVDIK")
0.1

Next item in the queue.
Provide only the value of recorded OD490 for PD1-31F3 (antibody, V domains shown, scFv-phage in the screening ELISA; later whole IgG) VH: QVQLVQSGAEVKKPGSSVKVSCKASGGTFSSYAISWVRQAPGQGLEWMGGIIPLFSTAHSAQKFQGRVTITADESSSTAYMELSSLRSEDTAVYYCAKHKGLPFDWSPDGFDTWGQGTMVTVSS VL: QFVLTQPPSVSGAPGQRVIISCTGSSSNIGAGYDVHWYQQLPGTAPKVLIYGNSDRPSGVPDRFSASKSATSASLAITGLQAEDEADYYCQSYDSSLSGYVFGTGTKVTVL 1.7
